# reported shrunken log2 fold change; entries follow
# Test system: Escherichia coli TOP10;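 note: peptides expressed intracellularly from a pBAD plasmid library in pooled LB shake-flask culture, induced with 0.3% L-arabinose, DNA abundance read by NGS, three biological replicates, DESeq2 with apeglm shrinkage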
# Test Name: shrunken log2 fold change of peptide-encoding DNA abundance (4.5 h post-induction vs induction); higher = less antimicrobial activity (less host growth inhibition)
# Experimental Context: time post-induction: 4.5 h; library: site-saturation at positions 5, 18, 19, 20
Enter the number alone.

Macromolecule Sequence: RRIRIRPPRLPRPRPRPVLFPRP
shrunken log2 fold change: -0.357
--
Macromolecule Sequence: RRIRMRPPRLPRPRPRPYGTPRP
shrunken log2 fold change: -0.411
--
Macromolecule Sequence: RRIRIRPPRLPRPRPRPVIHPRP
shrunken log2 fold change: -0.248
--
Macromolecule Sequence: RRIRIRPPRLPRPRPRPHRSPRP
shrunken log2 fold change: 0.0394
--
Macromolecule Sequence: RRIRDRPPRLPRPRPRPGHWPRP
shrunken log2 fold change: 0.315
--
Macromolecule Sequence: RRIRVRPPRLPRPRPRPQYGPRP
shrunken log2 fold change: -0.0699
--
Macromolecule Sequence: RRIRCRPPRLPRPRPRPHVPPRP
shrunken log2 fold change: -0.0309
--
Macromolecule Sequence: RRIRWRPPRLPRPRPRPLVWPRP
shrunken log2 fold change: 0.426
--
Macromolecule Sequence: RRIRMRPPRLPRPRPRPKIEPRP
shrunken log2 fold change: 0.367
--
Macromolecule Sequence: RRIRLRPPRLPRPRPRPQSCPRP
shrunken log2 fold change: 0.123

Item `RRIRYRPPRLPRPRPRPHAIPRP` ; assay system Escherichia coli TOP10; shrunken log2 fold change reported as -0.268

Item `RRIRPRPPRLPRPRPRPTFNPRP` ; assay system Escherichia coli TOP10; shrunken log2 fold change reported as -0.155

Item `RRIRSRPPRLPRPRPRPINAPRP` ; assay system Escherichia coli TOP10; shrunken log2 fold change reported as -0.377

Item `RRIRFRPPRLPRPRPRPNLNPRP` ; assay system Escherichia coli TOP10; shrunken log2 fold change reported as -0.504

Item `RRIRYRPPRLPRPRPRPRIPPRP` ; assay system Escherichia coli TOP10; shrunken log2 fold change reported as -0.353

Item `RRIRMRPPRLPRPRPRPIVQPRP` ; assay system Escherichia coli TOP10; shrunken log2 fold change reported as -0.0131
